Target: T1, Scc2^1–181-Scc4 complex, wild type, tagged (6His-FLAG-Scc2 1-181; 6His-Scc4) (S. cerevisiae, UniProt Q04002 1-181; P40090 1-624)
T1 chain 1: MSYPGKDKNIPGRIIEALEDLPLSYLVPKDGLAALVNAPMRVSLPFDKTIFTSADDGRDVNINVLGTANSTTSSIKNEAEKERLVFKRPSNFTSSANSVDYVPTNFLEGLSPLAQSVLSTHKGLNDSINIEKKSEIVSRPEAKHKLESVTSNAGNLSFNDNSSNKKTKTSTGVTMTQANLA
T1 chain 2: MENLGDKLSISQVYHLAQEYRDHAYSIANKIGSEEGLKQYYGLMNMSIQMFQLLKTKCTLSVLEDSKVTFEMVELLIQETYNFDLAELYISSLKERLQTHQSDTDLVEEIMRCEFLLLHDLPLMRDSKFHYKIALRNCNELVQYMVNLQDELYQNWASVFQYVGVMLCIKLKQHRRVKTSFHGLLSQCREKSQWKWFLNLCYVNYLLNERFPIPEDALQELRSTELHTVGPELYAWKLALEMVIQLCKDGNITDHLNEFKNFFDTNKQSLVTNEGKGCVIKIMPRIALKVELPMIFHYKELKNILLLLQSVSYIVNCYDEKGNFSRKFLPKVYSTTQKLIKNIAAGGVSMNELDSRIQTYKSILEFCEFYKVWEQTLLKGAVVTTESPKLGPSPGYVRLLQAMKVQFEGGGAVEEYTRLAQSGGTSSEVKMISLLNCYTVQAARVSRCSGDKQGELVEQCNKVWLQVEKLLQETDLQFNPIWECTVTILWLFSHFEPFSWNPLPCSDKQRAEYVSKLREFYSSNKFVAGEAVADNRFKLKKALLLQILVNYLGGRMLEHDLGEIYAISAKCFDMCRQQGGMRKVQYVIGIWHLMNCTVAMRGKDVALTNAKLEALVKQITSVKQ
Assay: BLI; phosphorylated S5
Non-standard residues stand in square brackets, D forms with d. No end group written: not given here. pS = N[C@@H](COP(=O)(O)O)C(=O)O
Property name: pKd
Remember the convention: pKd equals -log10 of concentration in molar.

Record request: pKd value, item MDFT[pS]DTTNSH [Synthetic Ctf19^1–11 peptide phosphorylated at S5 (MDFTpSDTTNSH)]
3.91

Source: paper PMC5610175
